tested on: FADU (Head and Neck Carcinoma); assay: combination Emax (second highest fraction inhibited in the dose matrix, 72 h); higher = more inhibition; extreme values may be limits of the assay
Listing of recorded combination Emax by entry.

Compound: CN(C)CCCOc1ccc(-c2ccc3ncc4c(c3c2)n(C2CCOCC2)c(=O)n4C)cn1 [AZD0156] + CCN(CCO)CCCOc1ccc2c(Nc3cc(CC(=O)Nc4cccc(F)c4)[nH]n3)ncnc2c1 [AZD2811] (first compound max 1 µM, 7x7, partner max 1 µM)
combination Emax: 0.228
//
Compound: Cc1cc2ncnn2cc1Nc1ncc2c(n1)n(C1CCOCC1)c(=O)n2C [AZD7648] + C[C@@H]1COCCN1C2=NC(=NC(=C2)C3(CC3)[S@](=N)(=O)C)C4=C5C=CNC5=NC=C4 [AZD6738] (first compound max 10 µM, 7x7, partner max 10 µM)
combination Emax: 0.695
//
Compound: Cc1cc2ncnn2cc1Nc1ncc2c(n1)n(C1CCOCC1)c(=O)n2C [AZD7648] + CCN(CCO)CCCOc1ccc2c(Nc3cc(CC(=O)Nc4cccc(F)c4)[nH]n3)ncnc2c1 [AZD2811] (first compound max 10 µM, 7x7, partner max 1 µM)
combination Emax: 0.263
//
Compound: COc1cccc(OCCCN)c1-c1cc(Nc2cnc(C#N)cn2)n[nH]1 [Prexasertib] + C[C@@H]1COCCN1C2=NC(=NC(=C2)C3(CC3)[S@](=N)(=O)C)C4=C5C=CNC5=NC=C4 [AZD6738] (first compound max 1 µM, 7x7, partner max 10 µM)
combination Emax: 0.918
//
Compound: Cc1c2c(nn1C)CSCc1cc(n(C)n1)CSc1cc(c3ccccc3c1)OCCCc1c(C(=O)O)n(C)c3c-2c(Cl)ccc13 [AZD5991] + CCN(CCO)CCCOc1ccc2c(Nc3cc(CC(=O)Nc4cccc(F)c4)[nH]n3)ncnc2c1 [AZD2811] (first compound max 1 µM, 7x7, partner max 1 µM)
combination Emax: 0.986
//
Compound: Cc1cc2ncnn2cc1Nc1ncc2c(n1)n(C1CCOCC1)c(=O)n2C [AZD7648] + CN(C)CCCOc1ccc(-c2ccc3ncc4c(c3c2)n(C2CCOCC2)c(=O)n4C)cn1 [AZD0156] (first compound max 10 µM, 7x7, partner max 1 µM)
combination Emax: 0.111
//
Compound: CN(CCO)CC[C@H](CSc1ccccc1)Nc1ccc(S(=O)(=O)NC(=O)c2ccc(N3CCC([C@@H](O)c4ccccc4-c4ccc(Cl)cc4)CC3)cc2)cc1S(=O)(=O)C(F)(F)F [AZD4320] + C1CN(CCC1(C(=O)N[C@@H](CCO)C2=CC=C(C=C2)Cl)N)C3=NC=NC4=C3C=CN4 [Capivasertib] (first compound max 1 µM, 7x7, partner max 3 µM)
combination Emax: 0.116
//
Compound: C[C@@H](c1ccc2nccn2c1)n1nnc2ncc(-c3cnn(C)c3)nc21 [Savolitinib] + CC1(C)CCC(CN2CCN(c3ccc(C(=O)NS(=O)(=O)c4ccc(NCC5CCOCC5)c([N+](=O)[O-])c4)c(Oc4cnc5[nH]ccc5c4)c3)CC2)=C(c2ccc(Cl)cc2)C1 [Venetoclax] (first compound max 1 µM, 7x7, partner max 1 µM)
combination Emax: 0.154
//
Compound: Cc1c2c(nn1C)CSCc1cc(n(C)n1)CSc1cc(c3ccccc3c1)OCCCc1c(C(=O)O)n(C)c3c-2c(Cl)ccc13 [AZD5991] + CC1(C)CCC(CN2CCN(c3ccc(C(=O)NS(=O)(=O)c4ccc(NCC5CCOCC5)c([N+](=O)[O-])c4)c(Oc4cnc5[nH]ccc5c4)c3)CC2)=C(c2ccc(Cl)cc2)C1 [Venetoclax] (first compound max 1 µM, 7x7, partner max 1 µM)
combination Emax: 0.946
//
Compound: CN(CCO)CC[C@H](CSc1ccccc1)Nc1ccc(S(=O)(=O)NC(=O)c2ccc(N3CCC([C@@H](O)c4ccccc4-c4ccc(Cl)cc4)CC3)cc2)cc1S(=O)(=O)C(F)(F)F [AZD4320] + C[C@@H](Nc1cc(F)cc(F)c1)c1cc(C(=O)N(C)C)cc2c(=O)cc(N3CCOCC3)oc12 [AZD8186] (first compound max 1 µM, 7x7, partner max 3 µM)
combination Emax: 0.846
//
Compound: CCc1c2c(nc3ccc(O)cc13)-c1cc3c(c(=O)n1C2)COC(=O)[C@]3(O)CC [SN-38] + O=C(c1cc(Cc2n[nH]c(=O)c3ccccc23)ccc1F)N1CCN(C(=O)C2CC2)CC1 [Olaparib] (first compound max 0.3 µM, 7x7, partner max 10 µM)
combination Emax: 0.996
//
Compound: C[C@@H](c1ccc2nccn2c1)n1nnc2ncc(-c3cnn(C)c3)nc21 [Savolitinib] + Cc1c2c(nn1C)CSCc1cc(n(C)n1)CSc1cc(c3ccccc3c1)OCCCc1c(C(=O)O)n(C)c3c-2c(Cl)ccc13 [AZD5991] (first compound max 1 µM, 7x7, partner max 1 µM)
combination Emax: 0.546
//
Compound: COc1nnc2ccc(N3CCC(c4ccc(OCCN5CCN(C)C(=O)[C@H]5C)cc4)CC3)nn12 [AZD5153] + CC1(C)CCC(CN2CCN(c3ccc(C(=O)NS(=O)(=O)c4ccc(NCC5CCOCC5)c([N+](=O)[O-])c4)c(Oc4cnc5[nH]ccc5c4)c3)CC2)=C(c2ccc(Cl)cc2)C1 [Venetoclax] (first compound max 1 µM, 7x7, partner max 1 µM)
combination Emax: 0.521
